tested_on: T1, recombinant human CFD mutant 1 (R157A, R207A), His-tagged (human, UniProt P00746 26-253)
T1 construct: positions are linear positions in the mature protein; also called rhCFD-mut1-His; Mut1
procedure_summary: ELISA
observable: Mut1 Binding (% wt)
Give the quantity in % wt, number only.

[
  {
    "binder": "KCD003 (antibody, V domains shown, chimeric) VH: EVQLQQSRPELVKPGASVKIFCKASGYTFTDYYMNWMRQRHGETLEWIGDINPNNGDPSYNQKFKDKATLTVDKSSSTASMELRSLTSDDSAVYYCAREGPSFAYWGQGTLVTVSA VL: DVLMTQTPLSLPVSLGEQASISCRSSQTIVHSNGDTYLEWYLQKPGQSPNLLIYKVSNRFSGVPDRFSGSGSGTDFTLKISRVEAEDLGVYYCFQGSHVPPTFGGGTKLEIK",
    "Mut1 Binding (% wt)": 1.53
  },
  {
    "binder": "KCD005 (antibody, V domains shown, chimeric) VH: EVQLQQSGPELVKPGASVKISCKASGYTFTDHYMNWVKQSHGKSLEWIGDINPNNGGTSCNQKFKGKATLTVDKSSSTAYMELRSLTSGDSAVYYCTREGASFAFWGQGTLVTVSA VL: DVLMTQTPLSLPVSLGDQASISCRSSQSIVHSNGDTYLEWYLQKPGQSPKLLIYKVSNRFSGVPDRFSGSGSGTDFTLKISRVEAEDLGVYYCFQGSHVPVTFGAGTKLELK",
    "Mut1 Binding (% wt)": 1.79
  },
  {
    "binder": "KCD124 (antibody, V domains shown, chimeric) VH: EVQLQQSGPELVKPGASVKISCKASGYTFTDHYMNWVKQSHGKSLEWIGDINPNNGGTSYNQKFKGKATLTVDKSSSTAYMELRSLTSGDSAVYYCTREGASFAFWGQGTLVTVSA VL: DVLMTQTPLSLPVSLGDQASISCRSSQSIVHSNGDTYLEWYLQKPGQSPKLLIYKVSNRFSGVPDRFSGSGSGTDFTLKISRVEAEDLGVYYCFQGSHVPLTFGAGTKLELK",
    "Mut1 Binding (% wt)": -0.643
  }
]

Ask: Reported Mut1 Binding (% wt), binder KCD123 (antibody, V domains shown, chimeric) VH: EVHLQQSGPELVKPGASVKISCKASGYTFTDFYKNWMRQRHGESLEWIGDINPNNGGTNYNQKFKGKATLTVDKSSSTAYMELRSLTSEDSAVYYCAREGPSFAYWGQGTLVTVSA VL: DVLMTQTPLSLPVSLGDQASISCRSSQTIVHSNGDTYLEWYLQKPGQSPNLLIYKVSNRFSGVPDRFSGSGSGTDFTLKISRVEAEDLGVYYCFQGSHVPPTFGGGTKLEIK : ____
Result: 2.91

Ask: And what about the binder KCD010 (antibody, V domains shown, chimeric) VH: EVLLQQSGPELVKPGASVKIPCKASGYTFTDYDMDWVKQSHGKSLEWIGHINPNNGGTIYNQKFKGKATLTVDKSSSTAYMELRSLTSEDTAVYYCGTGDFAYWGHGTLVTVSA VL: QIVLTQSPAIMSVSPGEKVTLTCSASSSVSSSYLYWYQKKPGSSPKLWIYSTSNLASGVPARFSGSGSGTSYSLTISSMEAEDAASYFCHQWSSYPPTFGAGTKLELK ?
Result: 3.77

Ask: And what about the binder KCD118 (antibody, V domains shown, chimeric) VH: EVQLQQSGPELVKPGASVKISCKAFGYTFTDYYKNWMRQRHGESLEWIGDINPNSGDANYNQKFKGKATLTVDKSSSTAYMELRSLTSEDSAVYYCAREGPSFAYWGHGTLVTVSA VL: DVLMTQTPLSLPVSLGDQASISCRSSQTIVHSNGDTYLEWYLQKPGQSPNLLIYKVSNRFSGVPDRFSGSGSGTDFTLKISRVEAEDLGIYYCFQGSHVPPTFGGGTKLEIK ?
Result: 0.762

Ask: And what about the binder KCD122 (antibody, V domains shown, chimeric) VH: EVQLQQSGPELVKPGASVKISCKASGYTFTDYYKNWMRQRHGESLEWIGDINPNNGDANYNQKFKGKATLTVDKSSSTAYMELRSLTSEDSAVYFCAREGPSFAYWGHGTLVTVSA VL: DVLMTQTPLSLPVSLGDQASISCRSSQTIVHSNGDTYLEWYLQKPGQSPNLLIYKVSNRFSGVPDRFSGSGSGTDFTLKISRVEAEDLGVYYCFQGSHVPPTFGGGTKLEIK ?
Result: 2.25

Ask: And what about the binder KCD121 (antibody, V domains shown, chimeric) VH: EVQLQQSGPELVKPGASVKISCKASGYTFTDYYKNWMRQRHGESLEWIGDINPNNGDTSYNQKFRGKATLTVDKSSSTAFMELRSLTSEDSAVYYCAREGPSFAYWGQGTLVTVSA VL: DVLMTQTPLSLPVSLGDQASISCRSNQTIVHSNGDTYLEWYLQKPGQSPNLLIYKVSNRFSGVPDRFSGSGSGTDFTLRISRVEAEDLGVYYCFQGSHVPPTFGGGTKLEIK ?
Result: 0.602
